Tested on: MPNST complex spheroid with HUVEC/MSC, growth, % test/control
protocol description: Anticancer human tumor MPNST cell line growth inhibition [Asc];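 note: compounds left on spheroids for seven days before reading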
stated conditions: second compound 0.00316 µM; first compound 0.316 µM; active compounds read low
# Lookup of reported viability, T/C keyed by entry

Would you please look over these solved cases?
INSERT INTO assay_data (compound, reported_measurement) VALUES
  ('CCN1CCN(Cc2ccc(Nc3ncc(F)c(-c4cc(F)c5nc(C)n(C(C)C)c5c4)n3)nc2)CC1 + CNC(C)C(=O)NC1CN(S(=O)(=O)c2cccc(S(=O)(=O)N3CCC4CCC(C(=O)NC(c5ccccc5)c5ccccc5)N4C(=O)C(NC(=O)C(C)NC)C3)c2)CCC2CCC(C(=O)NC(c3ccccc3)c3ccccc3)N2C1=O', '51.9%'),
  ('C#Cc1c(F)ccc2cc(O)cc(-c3ncc4c(N5CC6CCC(C5)N6)nc(OCC56CCCN5CC(F)C6)nc4c3F)c12 (configuration not stated) + CNC(C)C(=O)NC1CN(S(=O)(=O)c2cccc(S(=O)(=O)N3CCC4CCC(C(=O)NC(c5ccccc5)c5ccccc5)N4C(=O)C(NC(=O)C(C)NC)C3)c2)CCC2CCC(C(=O)NC(c3ccccc3)c3ccccc3)N2C1=O', '57.7%'),
  ('COc1c(OCCCN2CCOCC2)ccc2c3n(c(=NC(=O)c4cnc(N)nc4)nc12)CCN3 + CNC(C)C(=O)NC1CN(S(=O)(=O)c2cccc(S(=O)(=O)N3CCC4CCC(C(=O)NC(c5ccccc5)c5ccccc5)N4C(=O)C(NC(=O)C(C)NC)C3)c2)CCC2CCC(C(=O)NC(c3ccccc3)c3ccccc3)N2C1=O', '9.54%'),
  ('O=C(c1cc(Cc2n[nH]c(=O)c3ccccc23)ccc1F)N1CCN(C(=O)C2CC2)CC1 + CNC(C)C(=O)NC1CN(S(=O)(=O)c2cccc(S(=O)(=O)N3CCC4CCC(C(=O)NC(c5ccccc5)c5ccccc5)N4C(=O)C(NC(=O)C(C)NC)C3)c2)CCC2CCC(C(=O)NC(c3ccccc3)c3ccccc3)N2C1=O', '13.4%'),
  ('C=CC(=O)N1CCN(c2nc(=O)n(-c3c(C)ccnc3C(C)C)c3nc(-c4c(O)cccc4F)c(F)cc23)C(C)C1 (configuration not stated) + CNC(C)C(=O)NC1CN(S(=O)(=O)c2cccc(S(=O)(=O)N3CCC4CCC(C(=O)NC(c5ccccc5)c5ccccc5)N4C(=O)C(NC(=O)C(C)NC)C3)c2)CCC2CCC(C(=O)NC(c3ccccc3)c3ccccc3)N2C1=O', '94.1%'),
  ('C=C(F)C(=O)N1CCN(c2nc(OCC3CCCN3C)nc3c2CCN(c2cccc4cccc(Cl)c24)C3)CC1CC#N (configuration not stated) + CNC(C)C(=O)NC1CN(S(=O)(=O)c2cccc(S(=O)(=O)N3CCC4CCC(C(=O)NC(c5ccccc5)c5ccccc5)N4C(=O)C(NC(=O)C(C)NC)C3)c2)CCC2CCC(C(=O)NC(c3ccccc3)c3ccccc3)N2C1=O', '65.9%');

Consider the compound shown here: O=C(c1ccc(F)c(F)c1Nc1ccc(I)cc1F)N1CC(O)([C@@H]2CCCCN2)C1 + CNC(C)C(=O)NC1CN(S(=O)(=O)c2cccc(S(=O)(=O)N3CCC4CCC(C(=O)NC(c5ccccc5)c5ccccc5)N4C(=O)C(NC(=O)C(C)NC)C3)c2)CCC2CCC(C(=O)NC(c3ccccc3)c3ccccc3)N2C1=O What is its recorded viability, T/C?
66.1%
